Biological target: UniProtKB Q9UKE5
Sequence (Q9UKE5 whole entry): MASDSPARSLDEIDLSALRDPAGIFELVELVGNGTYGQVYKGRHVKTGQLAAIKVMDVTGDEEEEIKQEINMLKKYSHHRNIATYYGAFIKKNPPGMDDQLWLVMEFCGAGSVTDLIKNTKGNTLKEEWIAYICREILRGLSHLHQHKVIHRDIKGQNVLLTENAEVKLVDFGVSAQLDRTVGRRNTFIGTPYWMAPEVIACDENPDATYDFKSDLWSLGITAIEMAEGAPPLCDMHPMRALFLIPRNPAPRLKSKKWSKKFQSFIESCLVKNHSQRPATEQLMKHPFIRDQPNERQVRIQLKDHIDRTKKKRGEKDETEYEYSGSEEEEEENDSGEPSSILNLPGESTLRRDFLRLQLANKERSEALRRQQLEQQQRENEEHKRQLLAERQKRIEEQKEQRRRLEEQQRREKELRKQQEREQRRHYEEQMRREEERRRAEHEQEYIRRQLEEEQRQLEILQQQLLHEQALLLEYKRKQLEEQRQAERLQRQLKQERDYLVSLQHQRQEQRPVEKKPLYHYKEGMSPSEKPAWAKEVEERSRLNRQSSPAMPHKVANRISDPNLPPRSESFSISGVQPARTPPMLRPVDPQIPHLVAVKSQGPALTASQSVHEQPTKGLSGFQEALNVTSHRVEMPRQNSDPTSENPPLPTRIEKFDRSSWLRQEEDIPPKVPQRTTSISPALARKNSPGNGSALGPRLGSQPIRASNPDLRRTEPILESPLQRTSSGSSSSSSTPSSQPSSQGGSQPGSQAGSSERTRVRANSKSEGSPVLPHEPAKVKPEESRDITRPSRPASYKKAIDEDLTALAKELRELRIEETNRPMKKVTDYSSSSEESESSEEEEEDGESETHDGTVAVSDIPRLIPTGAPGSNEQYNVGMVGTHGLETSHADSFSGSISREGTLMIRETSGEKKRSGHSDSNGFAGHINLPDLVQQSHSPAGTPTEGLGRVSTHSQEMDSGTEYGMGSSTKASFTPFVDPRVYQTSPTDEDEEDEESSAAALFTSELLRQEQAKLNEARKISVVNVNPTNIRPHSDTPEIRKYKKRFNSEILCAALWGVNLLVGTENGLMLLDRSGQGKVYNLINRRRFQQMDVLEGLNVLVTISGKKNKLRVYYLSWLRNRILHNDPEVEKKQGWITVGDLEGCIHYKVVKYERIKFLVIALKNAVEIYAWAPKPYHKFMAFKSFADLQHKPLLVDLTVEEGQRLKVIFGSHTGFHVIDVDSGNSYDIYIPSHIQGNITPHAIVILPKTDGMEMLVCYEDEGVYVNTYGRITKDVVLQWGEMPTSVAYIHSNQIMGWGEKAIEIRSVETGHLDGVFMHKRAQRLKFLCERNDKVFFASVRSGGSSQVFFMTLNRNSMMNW
Assay: Inhibition of recombinant TNIK (unknown origin) using LRRKtide as substrate after 1 hr in presence of 30 uM ATP
Kindly state pIC50 for each of the entries shown.
Please treat pIC50 as minus the base-10 logarithm of the molar concentration.

Q: What value of measured pIC50 is listed for Cc1c(Cl)cccc1-c1ccc(C(=O)Nc2ccc(S(N)(=O)=O)cc2)o1 ?
Ans: 6.59

Q: Recorded pIC50 for O=C(Nc1nnc(/C=C/c2ccccc2)s1)c1ccco1 , please?
Ans: 5.45

Q: What value of measured pIC50 is listed for CC(C)(C)c1ccc(/C=C/C(=O)Nc2ccccc2C(N)=O)cc1 ?
Ans: 5.56

Q: What does the data say about its pIC50? Entry: O=C(Nc1ccc(Br)cc1)Nc1ccc(CN2CCCC2)cc1
Ans: 5.45

Q: State the recorded pIC50 for this entry: CN1CCN(c2ccc(NC(=O)c3ccc(-c4cc(Cl)ccc4Cl)o3)cc2)CC1
Ans: 6.07

Q: Which value of pIC50 has been reported for CC[C@@H]1CCc2c(sc(NC(=O)Nc3ccccc3)c2C(N)=O)C1 in the records?
Ans: 4.99
